// values below are reported Half-life t1/2
test: Metabolic stability in pooled human liver microsomes (half-life); type: in vitro ADME; conditions: 37° C., 1 μM test compound

In the examples that follow, each entry is paired with its recorded Half-life t1/2.
Cc1ncccc1OCC(C)(C)NC(=O)[C@H]1[C@@H]2CNC[C@@H]21.Cl
>2.17 h
CC(C)(NC(=O)[C@H]1[C@@H]2CNC[C@@H]21)c1nc(C2CC2)c2ccccn12.Cl
>2.17 h
CC(C)(COc1cccnc1C(F)(F)F)NC(=O)[C@H]1[C@@H]2CNC[C@@H]21.Cl
>2.17 h
CC(C)(NC(=O)[C@H]1[C@@H]2CNC[C@@H]21)c1ncccc1C(F)(F)F.Cl
>2.17 h
Cc1cc2ccccc2c(C(C)(C)NC(=O)[C@H]2[C@@H]3CNC[C@@H]32)n1.Cl
>2.17 h

// switching to the query compound
Param item = CC(C)(NC(=O)[C@H]1[C@@H]2CNC[C@@H]21)c1noc2c(F)cccc12 ; retrieve measured Half-life t1/2.
>2.17 h
